- Tested on: 242566-281-R-J2-PDC complex spheroid viability
- method: Anticancer human tumor 242566-281-R-J2-PDC patient-derived pancreatic carcinoma cell line growth inhibition [CLK]
- recorded_conditions: second compound 0.0316 µM; first compound 0.316 µM; stronger effect = lower value
observed_property: viability, T/C (%)
// note: answer is a bare numeric in %

Known viability, T/C results, listed for orientation:
{"compound": "Nc1ccn(C2OC(CO)C(O)C2(F)F)c(=O)n1 (stereo not given) + CNC(=O)c1ccc(Nc2nc(OC3CCCC3)c3c(-c4ccc5nc(C)oc5c4)c[nH]c3n2)c(OC)c1", "observed_result": 21.2}
{"compound": "CC1(C)CCC(CN2CCN(c3ccc(C(=O)NS(=O)(=O)c4ccc(NCC5CCOCC5)c([N+](=O)[O-])c4)c(Oc4cnc5[nH]ccc5c4)c3)CC2)=C(c2ccc(Cl)cc2)C1 + CN1CCN(c2cc(C(=O)Nc3cc4cc(-c5cnn(C)c5)ccc4cn3)ccn2)CC1", "observed_result": 101}
{"compound": "CC1(C)CCC(CN2CCN(c3ccc(C(=O)NS(=O)(=O)c4ccc(NCC5CCOCC5)c([N+](=O)[O-])c4)c(Oc4cnc5[nH]ccc5c4)c3)CC2)=C(c2ccc(Cl)cc2)C1 + CNC(=O)c1ccc(Nc2nc(OC3CCCC3)c3c(-c4ccc5nc(C)oc5c4)c[nH]c3n2)c(OC)c1", "observed_result": 113}
{"compound": "C=C(F)C(=O)N1CCN(c2nc(OCC3CCCN3C)nc3c2CCN(c2cccc4cccc(Cl)c24)C3)CC1CC#N (stereo not given) + CN1CCN(c2cc(C(=O)Nc3cc4cc(-c5cnn(C)c5)ccc4cn3)ccn2)CC1", "observed_result": 104}
{"compound": "CC(Nc1ccc2c(c1)OCCn1cc(N3C(=O)OCC3C(F)F)nc1-2)C(N)=O (stereo not given) + CN1CCN(c2cc(C(=O)Nc3cc4cc(-c5cnn(C)c5)ccc4cn3)ccn2)CC1", "observed_result": 66.1}

Recorded viability, T/C for CCN1CCN(Cc2ccc(Nc3ncc(F)c(-c4cc(F)c5nc(C)n(C(C)C)c5c4)n3)nc2)CC1 + CNC(=O)c1ccc(Nc2nc(OC3CCCC3)c3c(-c4ccc5nc(C)oc5c4)c[nH]c3n2)c(OC)c1 , please? 136

Can you look up the measured viability, T/C of CCN1CCN(Cc2ccc(Nc3ncc(F)c(-c4cc(F)c5nc(C)n(C(C)C)c5c4)n3)nc2)CC1 + CN1CCN(c2cc(C(=O)Nc3cc4cc(-c5cnn(C)c5)ccc4cn3)ccn2)CC1 for me? 122

====

Below, each entry is listed alongside its reported viability, T/C.
- System: 242566-281-R-J2-PDC complex spheroid viability
- method: Anticancer human tumor 242566-281-R-J2-PDC cell line growth inhibition [CLK];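 further: spheroids exposed to compounds for 7 days before readout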;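 on viability, T/C: 100% = DMSO vehicle control wells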
- recorded_conditions: second compound 0.316 µM; first compound 1 µM; stronger effect = lower value

Example compounds with recorded viability, T/C:
{"compound": "COC1C=CCC(C)C(C)S(=O)(=O)NC(=O)c2ccc3c(c2)N(CC2CCC21)CC1(CCCc2cc(Cl)ccc21)CO3 (stereo not given) + CNC(=O)c1ccc(Nc2nc(OC3CCCC3)c3c(-c4ccc5nc(C)oc5c4)c[nH]c3n2)c(OC)c1", "target_or_system": "242566-281-R-J2-PDC complex spheroid viability", "observed_result": "42.3%"}
{"compound": "CCc1c2c(nc3ccc(O)cc13)-c1cc3c(c(=O)n1C2)COC(=O)[C@]3(O)CC + CNC(=O)c1ccc(Nc2nc(OC3CCCC3)c3c(-c4ccc5nc(C)oc5c4)c[nH]c3n2)c(OC)c1", "target_or_system": "242566-281-R-J2-PDC complex spheroid viability", "observed_result": "3.02%"}
{"compound": "CC(CO)NC(=O)c1cc(-c2ccc(Cl)cc2)nn(-c2cnn(C)c2)c1=O (stereo not given) + CN1CCN(c2cc(C(=O)Nc3cc4cc(-c5cnn(C)c5)ccc4cn3)ccn2)CC1", "target_or_system": "242566-281-R-J2-PDC complex spheroid viability", "observed_result": "36.5%"}
{"compound": "Nc1ccn(C2OC(CO)C(O)C2(F)F)c(=O)n1 (stereo not given) + CNC(=O)c1ccc(Nc2nc(OC3CCCC3)c3c(-c4ccc5nc(C)oc5c4)c[nH]c3n2)c(OC)c1", "target_or_system": "242566-281-R-J2-PDC complex spheroid viability", "observed_result": "14.8%"}

Next, consider the following compound.
Recall the recorded viability, T/C for CC1(C)CCC(CN2CCN(c3ccc(C(=O)NS(=O)(=O)c4ccc(NCC5CCOCC5)c([N+](=O)[O-])c4)c(Oc4cnc5[nH]ccc5c4)c3)CC2)=C(c2ccc(Cl)cc2)C1 + CN1CCN(c2cc(C(=O)Nc3cc4cc(-c5cnn(C)c5)ccc4cn3)ccn2)CC1 with 242566-281-R-J2-PDC complex spheroid viability and state it. 38.9%

====

- Test system: 242566-281-R-J2-PDC complex spheroid viability
- method: Anticancer human tumor 242566-281-R-J2-PDC cell line growth inhibition [CLK];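 further: spheroids exposed to compounds for 7 days before readout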
- recorded_conditions: curve of first compound; second compound 0.316 µM
observed_property: IC50 (nM)
Output spec: scalar in nM, unitless text.

{"compound": "O=c1[nH]cc(F)c(=O)[nH]1 + CNC(=O)c1ccc(Nc2nc(OC3CCCC3)c3c(-c4ccc5nc(C)oc5c4)c[nH]c3n2)c(OC)c1", "observed_property": "IC50", "output_unit": "nM", "observed_result": 5150}

Reported IC50 for CC(Nc1ccc2c(c1)OCCn1cc(N3C(=O)OCC3C(F)F)nc1-2)C(N)=O (stereo not given) + CNC(=O)c1ccc(Nc2nc(OC3CCCC3)c3c(-c4ccc5nc(C)oc5c4)c[nH]c3n2)c(OC)c1 : what is it? 690

====

- Tested on: 242566-281-R-J2-PDC complex spheroid viability
- method: Anticancer human tumor 242566-281-R-J2-PDC cell line growth inhibition [CLK]; active = viability on the fitted dose curve at most 10% of control; inactive = the rest;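 further: spheroids exposed to compounds for 7 days before readout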
- recorded_conditions: second compound 10 µM; first compound 0.316 µM
Just give me one of these, please: yes (active), no (inactive)

{"molecule": "CCN1CCN(Cc2ccc(Nc3ncc(F)c(-c4cc(F)c5nc(C)n(C(C)C)c5c4)n3)nc2)CC1 + CNC(=O)c1ccc(Nc2nc(OC3CCCC3)c3c(-c4ccc5nc(C)oc5c4)c[nH]c3n2)c(OC)c1", "answer_label": "no"}
{"molecule": "COc1ccc([C@@H](O)c2cc(-c3ncnc4cc(N5CCOCC5)ccc34)c(F)cc2Cl)nn1 + CN1CCN(c2cc(C(=O)Nc3cc4cc(-c5cnn(C)c5)ccc4cn3)ccn2)CC1", "answer_label": "yes"}

What did this assay record as the result for C=CC(=O)N1CCN(c2nc(=O)n(-c3c(C)ccnc3C(C)C)c3nc(-c4c(O)cccc4F)c(F)cc23)C(C)C1 (stereo not drawn) + CNC(=O)c1ccc(Nc2nc(OC3CCCC3)c3c(-c4ccc5nc(C)oc5c4)c[nH]c3n2)c(OC)c1 ? no

====

- Tested on: 242566-281-R-J2-PDC complex spheroid viability
- method: Anticancer human tumor 242566-281-R-J2-PDC cell line growth inhibition [CLK];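 further: spheroids exposed to compounds for 7 days before readout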;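 on viability, T/C: 100% = DMSO vehicle control wells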
- recorded_conditions: second compound 0.316 µM; first compound 0.316 µM; stronger effect = lower value
observed_property: viability, T/C (%)
Give the number; % is assumed, so skip it.

Example cases with answers are listed next.
{"compound": "C=CC(=O)N1CCN(c2nc(=O)n(-c3c(C)ccnc3C(C)C)c3nc(-c4c(O)cccc4F)c(F)cc23)C(C)C1 (stereo not drawn) + CNC(=O)c1ccc(Nc2nc(OC3CCCC3)c3c(-c4ccc5nc(C)oc5c4)c[nH]c3n2)c(OC)c1", "output_unit": "%", "viability, T/C": 74.3}
{"compound": "C#Cc1c(F)ccc2cc(O)cc(-c3ncc4c(N5CC6CCC(C5)N6)nc(OCC56CCCN5CC(F)C6)nc4c3F)c12 (stereo not drawn) + CN1CCN(c2cc(C(=O)Nc3cc4cc(-c5cnn(C)c5)ccc4cn3)ccn2)CC1", "output_unit": "%", "viability, T/C": 12.2}

Query compound follows.
// lookup viability, T/C for COC1C=CCC(C)C(C)S(=O)(=O)NC(=O)c2ccc3c(c2)N(CC2CCC21)CC1(CCCc2cc(Cl)ccc21)CO3 (stereo not drawn) + CN1CCN(c2cc(C(=O)Nc3cc4cc(-c5cnn(C)c5)ccc4cn3)ccn2)CC1 28.7

====

- Tested on: 242566-281-R-J2-PDC complex spheroid viability
- method: Anticancer human tumor 242566-281-R-J2-PDC cell line growth inhibition [CLK]; active = viability on the fitted dose curve at most 10% of control; inactive = the rest;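 further: spheroids exposed to compounds for 7 days before readout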
- recorded_conditions: second compound 0.316 µM; first compound 0.316 µM
Permitted responses: active, inactive

{"compound": "O=C(c1cc(Cc2n[nH]c(=O)c3ccccc23)ccc1F)N1CCN(C(=O)C2CC2)CC1 + CN1CCN(c2cc(C(=O)Nc3cc4cc(-c5cnn(C)c5)ccc4cn3)ccn2)CC1", "answer_label": "inactive"}
{"compound": "Nc1ccccc1NC(=O)c1ccc(CNC(=O)OCc2cccnc2)cc1 + CN1CCN(c2cc(C(=O)Nc3cc4cc(-c5cnn(C)c5)ccc4cn3)ccn2)CC1", "answer_label": "inactive"}
{"compound": "CC1COCCN1c1cc(C2(S(C)(=N)=O)CC2)nc(-c2ccnc3[nH]ccc23)n1 (stereo not given) + CNC(=O)c1ccc(Nc2nc(OC3CCCC3)c3c(-c4ccc5nc(C)oc5c4)c[nH]c3n2)c(OC)c1", "answer_label": "inactive"}

Write down the call the test reported for this compound. Item: CCc1c2c(nc3ccc(O)cc13)-c1cc3c(c(=O)n1C2)COC(=O)[C@]3(O)CC + CNC(=O)c1ccc(Nc2nc(OC3CCCC3)c3c(-c4ccc5nc(C)oc5c4)c[nH]c3n2)c(OC)c1 active

Fill in: this test's call for C#Cc1c(F)ccc2cc(O)cc(-c3ncc4c(N5CC6CCC(C5)N6)nc(OCC56CCCN5CC(F)C6)nc4c3F)c12 (stereo not given) + CNC(=O)c1ccc(Nc2nc(OC3CCCC3)c3c(-c4ccc5nc(C)oc5c4)c[nH]c3n2)c(OC)c1 is ___ inactive

From: PubChem BioAssay AID2060622
